# Test system: avian myeloblastosis virus (AMV) reverse transcriptase (RT)
# assaySummary: Multi-nucleotide primer extension assay, AMV RT
# Assay type: biochemical
# testParameters: primer extension on RNA template, 10 min at 37 °C; read-out: IC50, full-length cDNA product, AMV RT
measure: pIC50
Interpret pIC50 as the negative base-10 log of the concentration measured in mol/L.

Q: Provide one value: measured pIC50 of NC[C@H]1O[C@H](O[C@H]2[C@H](O)[C@@H](O[C@H]3O[C@H](CSc4ccc5ccccc5c4)[C@@H](O)[C@H](N)[C@H]3O)[C@H](N)C[C@@H]2N)[C@H](N)C[C@@H]1O [TOB-Nap]
Ans: 4.64
